Source of measurements: PubChem BioAssay (NCI)

Each item that follows carries a reported TGI.
Test system: EKVX NSCLC
Assay: NCI tumour cell line growth inhibition, 48 h

[ask] Which TGI value is on record for COc1cc(NCC(C#N)C#N)ccc1N=Nc1ccc(Cl)cc1 ?
[reply] 68.5 µM

[ask] Which TGI value is on record for COc1cc2c(cc1O)c(O)cc1c3cc(OC)c(OC)cc3c[n+](C)c21 ?
[reply] > 100 µM

* * *

Each item that follows carries a reported TGI.
System: SN12C renal
Assay: NCI tumour cell line growth inhibition, 48 h

[ask] Which TGI value is on record for COc1ccc2c(c1)C(=O)/C(=C/c1cccc(OCC(=O)c3ccccc3)c1)O2 ?
[reply] 25.6 µM

[ask] Which TGI value is on record for O=C(NN1C(=O)C(Cl)C1c1ccc(Cl)cc1)c1c(Cl)c(Cl)c(Cl)c(Cl)c1-c1nc2ccccc2[nH]1 (stereo not given) ?
[reply] 83.2 µM

[ask] Which TGI value is on record for O=S(=O)(C1=CC(S(=O)(=O)c2ccccc2)CN(Cc2ccccc2)C1c1cccc2ccccc12)c1ccccc1 (stereo not given) ?
[reply] > 69 µM

[ask] Which TGI value is on record for C=C(C)C1CC2(C)C(C)CC(O)CC2C(OC(=O)C=C(C)C)C1O (stereo not given) ?
[reply] > 100 µM

[ask] Which TGI value is on record for CCC[CH2][Sn]([CH2]CCC)([O]C(=O)CN)[O]C(=O)CN ?
[reply] > 100 µM
